- TGT: Kdr (Homo sapiens, UniProt P35968)
- Construct: Kinases are expressed as either kinase domains or full length constructs; made in house
- Sequence (P35968 20-1356, species assumed): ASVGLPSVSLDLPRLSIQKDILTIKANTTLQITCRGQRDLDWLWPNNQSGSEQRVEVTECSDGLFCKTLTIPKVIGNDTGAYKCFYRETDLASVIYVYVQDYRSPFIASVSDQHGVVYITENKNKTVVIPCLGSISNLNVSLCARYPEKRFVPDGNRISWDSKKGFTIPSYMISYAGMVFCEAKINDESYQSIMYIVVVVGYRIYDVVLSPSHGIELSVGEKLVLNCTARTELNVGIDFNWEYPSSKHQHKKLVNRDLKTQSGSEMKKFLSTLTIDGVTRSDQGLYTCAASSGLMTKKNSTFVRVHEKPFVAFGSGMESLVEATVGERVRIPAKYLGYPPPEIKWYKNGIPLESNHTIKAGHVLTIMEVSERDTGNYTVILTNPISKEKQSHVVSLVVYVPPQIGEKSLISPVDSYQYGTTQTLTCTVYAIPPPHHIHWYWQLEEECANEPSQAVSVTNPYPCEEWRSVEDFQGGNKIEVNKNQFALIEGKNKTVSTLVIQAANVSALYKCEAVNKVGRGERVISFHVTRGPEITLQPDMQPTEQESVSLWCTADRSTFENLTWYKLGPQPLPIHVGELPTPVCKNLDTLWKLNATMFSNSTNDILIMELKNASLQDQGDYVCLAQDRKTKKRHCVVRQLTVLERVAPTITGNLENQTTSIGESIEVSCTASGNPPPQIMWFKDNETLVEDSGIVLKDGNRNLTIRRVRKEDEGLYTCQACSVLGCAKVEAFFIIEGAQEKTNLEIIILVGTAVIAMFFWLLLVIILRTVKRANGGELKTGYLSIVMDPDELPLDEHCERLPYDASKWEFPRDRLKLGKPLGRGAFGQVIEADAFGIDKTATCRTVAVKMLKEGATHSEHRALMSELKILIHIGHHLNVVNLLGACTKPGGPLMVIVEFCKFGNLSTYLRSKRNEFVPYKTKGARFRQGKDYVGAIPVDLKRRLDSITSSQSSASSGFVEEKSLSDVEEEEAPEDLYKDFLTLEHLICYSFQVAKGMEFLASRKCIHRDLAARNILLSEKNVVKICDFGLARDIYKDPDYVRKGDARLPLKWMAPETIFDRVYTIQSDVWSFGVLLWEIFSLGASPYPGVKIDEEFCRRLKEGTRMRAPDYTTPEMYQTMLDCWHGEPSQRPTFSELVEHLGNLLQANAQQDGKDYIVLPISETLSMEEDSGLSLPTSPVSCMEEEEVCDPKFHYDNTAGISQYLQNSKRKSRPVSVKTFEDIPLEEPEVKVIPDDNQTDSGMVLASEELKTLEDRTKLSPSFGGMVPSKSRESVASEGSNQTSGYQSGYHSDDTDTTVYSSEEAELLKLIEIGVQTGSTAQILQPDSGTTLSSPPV
- PROCEDURE_TEXT: Kinase inhibition assay (33P transfer), Kdr
- Assay type: biochemical
- EXPERIMENTAL_SETUP: Table 3; read-out: KDR-1
pIC50: −log10 of the molar value.
QUANTITY_KIND: pIC50

COc1cc(Nc2ncnc(N[C@@H](CO)c3ccccc3)n2)cc(OC)c1OC : < 4.95

(Q) Kdr (Homo sapiens, UniProt P35968) / pIC50 / COc1cc(Nc2ncnc(-n3c(N)nc4ccccc43)n2)ccc1OCCn1ccnn1 : value?
(A) > 6.05

(Q) Kdr (Homo sapiens, UniProt P35968) / pIC50 / COc1cc(Nc2ncnc(-n3c(Nc4ccc5[nH]ccc5c4)nc4ccccc43)n2)cc(OC)c1OC : value?
(A) > 6.10

(Q) Kdr (Homo sapiens, UniProt P35968) / pIC50 / COc1cc(Nc2ncnc(Nc3ccccc3)n2)cc(OC)c1OC : value?
(A) 5.17 to 5.95

###

- TGT: EGFR (Homo sapiens, UniProt P00533)
- Construct: Kinases are expressed as either kinase domains or full length constructs; made in house
- Sequence (P00533 25-1210, species assumed): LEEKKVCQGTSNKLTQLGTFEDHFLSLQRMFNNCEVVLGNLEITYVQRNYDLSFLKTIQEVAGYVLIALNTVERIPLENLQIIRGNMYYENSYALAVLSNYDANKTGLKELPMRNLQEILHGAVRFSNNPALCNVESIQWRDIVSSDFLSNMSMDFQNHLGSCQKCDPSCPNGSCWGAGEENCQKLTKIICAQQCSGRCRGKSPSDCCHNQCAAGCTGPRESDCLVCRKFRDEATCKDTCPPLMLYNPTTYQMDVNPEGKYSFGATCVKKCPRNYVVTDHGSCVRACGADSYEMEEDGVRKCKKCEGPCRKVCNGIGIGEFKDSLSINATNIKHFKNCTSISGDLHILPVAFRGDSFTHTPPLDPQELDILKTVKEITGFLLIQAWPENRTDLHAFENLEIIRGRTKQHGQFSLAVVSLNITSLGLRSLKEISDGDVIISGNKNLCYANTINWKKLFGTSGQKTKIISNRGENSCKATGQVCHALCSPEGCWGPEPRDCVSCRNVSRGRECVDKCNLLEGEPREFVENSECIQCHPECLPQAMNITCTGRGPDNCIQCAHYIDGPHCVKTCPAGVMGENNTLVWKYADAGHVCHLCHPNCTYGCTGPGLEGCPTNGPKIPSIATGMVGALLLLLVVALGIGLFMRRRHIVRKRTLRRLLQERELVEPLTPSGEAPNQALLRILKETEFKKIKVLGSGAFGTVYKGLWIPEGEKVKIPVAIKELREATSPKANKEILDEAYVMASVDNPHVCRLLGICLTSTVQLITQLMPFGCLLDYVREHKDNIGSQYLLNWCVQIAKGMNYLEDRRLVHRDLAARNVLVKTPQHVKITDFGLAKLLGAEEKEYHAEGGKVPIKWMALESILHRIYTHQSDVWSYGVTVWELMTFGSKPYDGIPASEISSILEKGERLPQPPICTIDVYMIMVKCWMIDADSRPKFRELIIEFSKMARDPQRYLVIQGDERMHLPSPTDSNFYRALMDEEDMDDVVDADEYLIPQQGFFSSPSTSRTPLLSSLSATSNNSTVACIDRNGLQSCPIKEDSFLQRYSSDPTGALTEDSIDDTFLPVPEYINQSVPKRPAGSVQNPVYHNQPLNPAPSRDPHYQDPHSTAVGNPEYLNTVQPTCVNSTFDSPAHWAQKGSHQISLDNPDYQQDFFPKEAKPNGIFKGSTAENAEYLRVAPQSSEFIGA
- PROCEDURE_TEXT: Kinase inhibition assay (33P transfer), EGFR
- Assay type: biochemical
- EXPERIMENTAL_SETUP: Table 2, kinase inhibition class; read-out: EGFR-1
- Description: The inhibitor compounds described herein are screened in the following manner. […] Kinases are expressed as either kinase domains or full length constructs fused to glutathione S-transferase (GST) or polyHistidine tagged fusion proteins in either E. colior Baculovirus-High Five expression systems. […] Kinase activity and inhibition are measured essentially by established protocols (Braunwalder et al., 1996). […]
Each item that follows carries a reported IC50.

COc1cc(Nc2ncnc(N3CCCCC3)n2)cc(OC)c1OC : > 13 µM
COc1cccc(Nc2ncnc(-c3ccccc3)n2)c1 : > 16.2 µM
COc1cc(Nc2ncnc(Nc3ccc4nn(C)cc4c3)n2)cc(OC)c1OC : 0.982 to 5.89 µM
O=C(O)Cc1cccc(Nc2ncnc(-n3c(NCc4ccccc4)nc4ccccc43)n2)c1 : < 0.886 µM

Moving on to the next compound.
(Q) Record request: IC50 value, item COc1cc(Nc2ncnc(-n3c(NCc4cccc(C)c4)nc4ccccc43)n2)cc(OC)c1OC
(A) > 9.04 µM

###

Each item that follows carries a reported pIC50.
- TGT: AKT (Homo sapiens, UniProt Q9Y243)
- Construct: Kinases are expressed as either kinase domains or full length constructs; made in house
- Sequence (Q9Y243 whole entry, the tested form may be a part): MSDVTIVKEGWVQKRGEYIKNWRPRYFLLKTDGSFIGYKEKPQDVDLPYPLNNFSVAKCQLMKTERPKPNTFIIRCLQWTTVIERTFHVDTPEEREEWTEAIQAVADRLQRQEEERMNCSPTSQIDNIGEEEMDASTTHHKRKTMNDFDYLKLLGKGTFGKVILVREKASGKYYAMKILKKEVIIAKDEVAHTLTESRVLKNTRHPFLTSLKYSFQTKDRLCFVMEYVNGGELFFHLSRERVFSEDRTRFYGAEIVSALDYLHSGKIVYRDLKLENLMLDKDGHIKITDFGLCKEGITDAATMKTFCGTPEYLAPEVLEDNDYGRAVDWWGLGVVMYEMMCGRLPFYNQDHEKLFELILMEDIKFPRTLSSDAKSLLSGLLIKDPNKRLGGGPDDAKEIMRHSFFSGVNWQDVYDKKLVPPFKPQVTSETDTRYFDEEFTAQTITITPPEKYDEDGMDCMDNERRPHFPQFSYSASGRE
- PROCEDURE_TEXT: Kinase inhibition assay (33P transfer), AKT
- Type: biochemical
- EXPERIMENTAL_SETUP: Table 2, kinase inhibition class; read-out: AKT3-1
pIC50: −log10 of the molar value.

# example entries with known answers
COc1cc(Nc2ncnc(-n3c(NCc4ccc(F)cc4)nc4ccccc43)n2)cc(OC)c1OC : < 5.05
COc1cc(Nc2ncnc(NCc3ccccc3)n2)cc(OC)c1OC : < 4.91
CC(C)Nc1ncccc1-c1ncnc(Nc2ccc(C(N)=O)cc2)n1 : < 4.89
COc1cc(Nc2ncnc(N(C)c3cccc(Cl)c3)n2)cc(OC)c1OC : < 4.95
COc1ccc(Nc2ncnc(N(C)c3cccc(Cl)c3)n2)cc1 : < 4.88
COc1cc(Nc2ncnc(NC3CC3c3ccccc3)n2)cc(OC)c1OC (stereo not drawn) : < 4.94
COc1cc(Nc2ncnc(Nc3cc(OC)c(OC)c(OC)c3)n2)cc(OC)c1 : < 4.96
Cc1ccc2c(c1)CCCN2c1ncnc(NCC2CCCO2)n1 (stereo not drawn) : < 4.86

Moving on to the next compound.
(Q) Record request: pIC50 value, item COc1cc(Nc2ncnc(-n3c(N[C@H](C)c4ccccc4)nc4ccccc43)n2)cc(OC)c1OC
(A) < 5.04
